Data credit: PubChem BioAssay AID2060908

For each entry below, report its viability, T/C value.
# System: 186277-243-T-J2-PDC complex spheroids, viability
# protocol: Anticancer human tumor 186277-243-T-J2-PDC patient-derived colon adenocarcinoma cell line growth inhibition [RAS]
# setup conditions: second compound 0.316 µM; first compound 0.0316 µM; stronger effect = lower value

compound="CC1(O)CCCC1n1c(=O)c(C(F)F)cc2cnc(NC3CCN(S(C)(=O)=O)CC3)nc21 (configuration not stated) + C=CC(=O)N1CCN(c2nc(OCC3CCCN3C)nc3c(F)c(-c4nc(N)cc(C)c4C(F)(F)F)c(Cl)cc23)C(C)C1" target_system="186277-243-T-J2-PDC complex spheroids, viability" readout="viability, T/C" readout_value=91.3%
compound="CC(=O)OC12COC1CC(O)C1(C)C(=O)C(O)C3=C(C)C(OC(=O)C(O)C(NC(=O)OC(C)(C)C)c4ccccc4)CC(O)(C(OC(=O)c4ccccc4)C21)C3(C)C (configuration not stated) + C=CC(=O)N1CCN(c2nc(OCC3CCCN3C)nc3c(F)c(-c4nc(N)cc(C)c4C(F)(F)F)c(Cl)cc23)C(C)C1" target_system="186277-243-T-J2-PDC complex spheroids, viability" readout="viability, T/C" readout_value=8.75%
compound="CC(C)n1nc(-c2ccc3oc(N)nc3c2)c2c(N)ncnc21 + C=CC(=O)N1CCN(c2nc(OCC3CCCN3C)nc3c(F)c(-c4nc(N)cc(C)c4C(F)(F)F)c(Cl)cc23)C(C)C1" target_system="186277-243-T-J2-PDC complex spheroids, viability" readout="viability, T/C" readout_value=97.4%

Hey, can you go through the list below and give me viability, T/C for every item?
1. CC1(O)CCCC1n1c(=O)c(C(F)F)cc2cnc(NC3CCN(S(C)(=O)=O)CC3)nc21 (configuration not stated) + C#Cc1c(F)ccc2cc(O)cc(-c3ncc4c(N5CC6CCC(C5)N6)nc(OCC56CCCN5CC(F)C6)nc4c3F)c12
2. Cc1nc(N2CCC3(CC2)COC(C)C3N)c(CO)nc1Sc1ccnc(N)c1Cl (configuration not stated) + C=CC(=O)N1CCN(c2nc(OCC3CCCN3C)nc3c(F)c(-c4nc(N)cc(C)c4C(F)(F)F)c(Cl)cc23)C(C)C1
3. C=CC(=O)N1CCN(c2nc(OCC3CCCN3C)nc3c(F)c(-c4nc(N)cc(C)c4C(F)(F)F)c(Cl)cc23)C(C)C1 (configuration not stated) + C#Cc1c(F)ccc2cc(O)cc(-c3ncc4c(N5CC6CCC(C5)N6)nc(OCC56CCCN5CC(F)C6)nc4c3F)c12
4. CC(Nc1ccc2c(c1)OCCn1cc(N3C(=O)OCC3C(F)F)nc1-2)C(N)=O (configuration not stated) + C#Cc1c(F)ccc2cc(O)cc(-c3ncc4c(N5CC6CCC(C5)N6)nc(OCC56CCCN5CC(F)C6)nc4c3F)c12

Solution:
1: 23.6%; 2: 90.6%; 3: 37.8%; 4: 18.2%

----------
# Tested on: 186277-243-T-J2-PDC complex spheroids, viability
# protocol: Anticancer human tumor 186277-243-T-J2-PDC cell line growth inhibition [RAS];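 also: spheroids exposed to compounds for 7 days before viability read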
# setup conditions: second compound 10 µM; first compound 0.316 µM; stronger effect = lower value
readout: viability, T/C (%)
Answers are plain numbers, in %.

compound="CC(=O)OC12COC1CC(O)C1(C)C(=O)C(O)C3=C(C)C(OC(=O)C(O)C(NC(=O)OC(C)(C)C)c4ccccc4)CC(O)(C(OC(=O)c4ccccc4)C21)C3(C)C (configuration not stated) + C#Cc1c(F)ccc2cc(O)cc(-c3ncc4c(N5CC6CCC(C5)N6)nc(OCC56CCCN5CC(F)C6)nc4c3F)c12" readout="viability, T/C" readout_value=4.17

Turning now to a further compound:
Problem: Reported viability, T/C for Cc1nc(N2CCC3(CC2)COC(C)C3N)c(CO)nc1Sc1ccnc(N)c1Cl (configuration not stated) + C#Cc1c(F)ccc2cc(O)cc(-c3ncc4c(N5CC6CCC(C5)N6)nc(OCC56CCCN5CC(F)C6)nc4c3F)c12 : what is it?
Solution: 6.12

----------
# Tested on: 186277-243-T-J2-PDC complex spheroids, viability
# protocol: Anticancer human tumor 186277-243-T-J2-PDC cell line growth inhibition [RAS]; active = viability on the fitted dose curve at most 10% of control; inactive = the rest;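 also: spheroids exposed to compounds for 7 days before viability read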
# setup conditions: second compound 0.00949 µM; first compound 1 µM
Your response should consist of one outcome taken from YES for active, NO for inactive

Please review the following examples before continuing.
molecule="C[C@@H](NC(=O)c1ncnc(N)c1Cl)c1ncc(C(=O)Nc2cc(C(F)(F)F)c(Cl)cn2)s1 + CCn1c(-c2cc(N3CCN(C)CC3)cnc2C(C)OC)c2c3cc(ccc31)-c1csc(n1)CC(NC(=O)C1CC1C)C(=O)N1CCCC(N1)C(=O)OCC(C)(C)C2" category=NO
molecule="CC1(O)CCCC1n1c(=O)c(C(F)F)cc2cnc(NC3CCN(S(C)(=O)=O)CC3)nc21 (centres undefined) + CCn1c(-c2cccnc2C(C)OC)c2c3cc(ccc31)N1CCOC(CC(NC(=O)C(C(C)C)N(C)C(=O)C3(F)CCN(C(=O)C#CC(C)(C)N(C)C)CC3)C(=O)N3CCCC(N3)C(=O)OCC(C)(C)C2)C1" category=NO
molecule="CC(Nc1ccc2c(c1)OCCn1cc(N3C(=O)OCC3C(F)F)nc1-2)C(N)=O (centres undefined) + CCn1c(-c2cc(N3CCN(C)CC3)cnc2C(C)OC)c2c3cc(ccc31)-c1csc(n1)CC(NC(=O)C1CC1C)C(=O)N1CCCC(N1)C(=O)OCC(C)(C)C2" category=YES

Below: the item to evaluate.
Problem: Can you look up the reported call for CC(C)NCC(C(=O)N1CCN(c2ncnc3c2C(C)CC3O)CC1)c1ccc(Cl)cc1 (centres undefined) + CCn1c(-c2cccnc2C(C)OC)c2c3cc(ccc31)N1CCOC(CC(NC(=O)C(C(C)C)N(C)C(=O)C3(F)CCN(C(=O)C#CC(C)(C)N(C)C)CC3)C(=O)N3CCCC(N3)C(=O)OCC(C)(C)C2)C1 for me?
Solution: NO

----------
# Test system: 186277-243-T-J2-PDC complex spheroids, viability
# protocol: Anticancer human tumor 186277-243-T-J2-PDC cell line growth inhibition [RAS]; active = viability on the fitted dose curve at most 10% of control; inactive = the rest;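 also: spheroids exposed to compounds for 7 days before viability read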
# setup conditions: second compound 0.003 µM; first compound 1 µM
// one of true for active, false for inactive, no free text

molecule="Cc1nc(N2CCC3(CC2)COC(C)C3N)c(CO)nc1Sc1ccnc(N)c1Cl (stereo not drawn) + CCn1c(-c2cc(N3CCN(C)CC3)cnc2C(C)OC)c2c3cc(ccc31)-c1csc(n1)CC(NC(=O)C1CC1C)C(=O)N1CCCC(N1)C(=O)OCC(C)(C)C2" category=true
molecule="C=CC(=O)Nc1cc(Nc2nccc(-c3cn(C)c4ccccc34)n2)c(OC)cc1N(C)CCN(C)C + CCn1c(-c2cccnc2C(C)OC)c2c3cc(ccc31)N1CCOC(CC(NC(=O)C(C(C)C)N(C)C(=O)C3(F)CCN(C(=O)C#CC(C)(C)N(C)C)CC3)C(=O)N3CCCC(N3)C(=O)OCC(C)(C)C2)C1" category=false

Problem: Entry CC(Nc1ccc2c(c1)OCCn1cc(N3C(=O)OCC3C(F)F)nc1-2)C(N)=O (stereo not drawn) + CCn1c(-c2cc(N3CCN(C)CC3)cnc2C(C)OC)c2c3cc(ccc31)-c1csc(n1)CC(NC(=O)C1CC1C)C(=O)N1CCCC(N1)C(=O)OCC(C)(C)C2 : call = ?
Solution: true

----------
So I've got a bunch of molecules here, and I need their viability, T/C values.
# System: 186277-243-T-J2-PDC complex spheroids, viability
# protocol: Anticancer human tumor 186277-243-T-J2-PDC cell line growth inhibition [RAS];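 also: spheroids exposed to compounds for 7 days before viability read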
# setup conditions: second compound 0.316 µM; first compound 0.316 µM; stronger effect = lower value
Numbers only, in %.

Take a look at these entries with their results.
molecule="C=CC(=O)Nc1cc(Nc2nccc(-c3cn(C)c4ccccc34)n2)c(OC)cc1N(C)CCN(C)C + C=CC(=O)N1CCN(c2nc(OCC3CCCN3C)nc3c(F)c(-c4nc(N)cc(C)c4C(F)(F)F)c(Cl)cc23)C(C)C1" readout="viability, T/C" readout_value=130
molecule="Nc1ccn(C2OC(CO)C(O)C2(F)F)c(=O)n1 (configuration not stated) + C#Cc1c(F)ccc2cc(O)cc(-c3ncc4c(N5CC6CCC(C5)N6)nc(OCC56CCCN5CC(F)C6)nc4c3F)c12" readout="viability, T/C" readout_value=5.4
molecule="CC(C)NCC(C(=O)N1CCN(c2ncnc3c2C(C)CC3O)CC1)c1ccc(Cl)cc1 (configuration not stated) + C=CC(=O)N1CCN(c2nc(OCC3CCCN3C)nc3c(F)c(-c4nc(N)cc(C)c4C(F)(F)F)c(Cl)cc23)C(C)C1" readout="viability, T/C" readout_value=89.1
molecule="CC(=O)OC12COC1CC(O)C1(C)C(=O)C(O)C3=C(C)C(OC(=O)C(O)C(NC(=O)OC(C)(C)C)c4ccccc4)CC(O)(C(OC(=O)c4ccccc4)C21)C3(C)C (configuration not stated) + C=CC(=O)N1CCN(c2nc(OCC3CCCN3C)nc3c(F)c(-c4nc(N)cc(C)c4C(F)(F)F)c(Cl)cc23)C(C)C1" readout="viability, T/C" readout_value=10.2
molecule="C[C@@H](NC(=O)c1ncnc(N)c1Cl)c1ncc(C(=O)Nc2cc(C(F)(F)F)c(Cl)cn2)s1 + C#Cc1c(F)ccc2cc(O)cc(-c3ncc4c(N5CC6CCC(C5)N6)nc(OCC56CCCN5CC(F)C6)nc4c3F)c12" readout="viability, T/C" readout_value=38.5

Please supply viability, T/C for each of the following items, keeping them in order.
1. CC(Nc1ccc2c(c1)OCCn1cc(N3C(=O)OCC3C(F)F)nc1-2)C(N)=O (configuration not stated) + C=CC(=O)N1CCN(c2nc(OCC3CCCN3C)nc3c(F)c(-c4nc(N)cc(C)c4C(F)(F)F)c(Cl)cc23)C(C)C1
2. C[C@@H](NC(=O)c1ncnc(N)c1Cl)c1ncc(C(=O)Nc2cc(C(F)(F)F)c(Cl)cn2)s1 + C=CC(=O)N1CCN(c2nc(OCC3CCCN3C)nc3c(F)c(-c4nc(N)cc(C)c4C(F)(F)F)c(Cl)cc23)C(C)C1
3. C=CC(=O)N1CCN(c2nc(OCC3CCCN3C)nc3c(F)c(-c4nc(N)cc(C)c4C(F)(F)F)c(Cl)cc23)C(C)C1 (configuration not stated) + C#Cc1c(F)ccc2cc(O)cc(-c3ncc4c(N5CC6CCC(C5)N6)nc(OCC56CCCN5CC(F)C6)nc4c3F)c12
4. Nc1ccn(C2OC(CO)C(O)C2(F)F)c(=O)n1 (configuration not stated) + C=CC(=O)N1CCN(c2nc(OCC3CCCN3C)nc3c(F)c(-c4nc(N)cc(C)c4C(F)(F)F)c(Cl)cc23)C(C)C1
5. CC1(O)CCCC1n1c(=O)c(C(F)F)cc2cnc(NC3CCN(S(C)(=O)=O)CC3)nc21 (configuration not stated) + C#Cc1c(F)ccc2cc(O)cc(-c3ncc4c(N5CC6CCC(C5)N6)nc(OCC56CCCN5CC(F)C6)nc4c3F)c12
6. NC1c2ccccc2OC12CCN(c1cnc3c(N4CCCc5ncccc54)n[nH]c3n1)CC2 (configuration not stated) + C=CC(=O)N1CCN(c2nc(OCC3CCCN3C)nc3c(F)c(-c4nc(N)cc(C)c4C(F)(F)F)c(Cl)cc23)C(C)C1

Solution:
1: 55.3; 2: 95.5; 3: 33.2; 4: 11.8; 5: 17; 6: 88.7

Consider the following items and state reported viability, T/C for each.
1. NC1c2ccccc2OC12CCN(c1cnc3c(N4CCCc5ncccc54)n[nH]c3n1)CC2 (configuration not stated) + C#Cc1c(F)ccc2cc(O)cc(-c3ncc4c(N5CC6CCC(C5)N6)nc(OCC56CCCN5CC(F)C6)nc4c3F)c12
2. CCN1CCN(Cc2ccc(Nc3ncc(F)c(-c4cc(F)c5nc(C)n(C(C)C)c5c4)n3)nc2)CC1 + C#Cc1c(F)ccc2cc(O)cc(-c3ncc4c(N5CC6CCC(C5)N6)nc(OCC56CCCN5CC(F)C6)nc4c3F)c12
3. O=C(c1ccc(F)c(F)c1Nc1ccc(I)cc1F)N1CC(O)([C@@H]2CCCCN2)C1 + C=CC(=O)N1CCN(c2nc(OCC3CCCN3C)nc3c(F)c(-c4nc(N)cc(C)c4C(F)(F)F)c(Cl)cc23)C(C)C1
4. CCC(CC)c1cc(NC2CCC(N)C2)n2nccc2n1 (configuration not stated) + C=CC(=O)N1CCN(c2nc(OCC3CCCN3C)nc3c(F)c(-c4nc(N)cc(C)c4C(F)(F)F)c(Cl)cc23)C(C)C1

Solution:
[7.32, 16.9, 13.3, 117]

State the recorded viability, T/C for every item in the following list.
1. CC(Nc1ccc2c(c1)OCCn1cc(N3C(=O)OCC3C(F)F)nc1-2)C(N)=O (configuration not stated) + C#Cc1c(F)ccc2cc(O)cc(-c3ncc4c(N5CC6CCC(C5)N6)nc(OCC56CCCN5CC(F)C6)nc4c3F)c12
2. CC(C)NCC(C(=O)N1CCN(c2ncnc3c2C(C)CC3O)CC1)c1ccc(Cl)cc1 (configuration not stated) + C#Cc1c(F)ccc2cc(O)cc(-c3ncc4c(N5CC6CCC(C5)N6)nc(OCC56CCCN5CC(F)C6)nc4c3F)c12

Solution:
2.9
13.1
